Measured pKi on Factor Xa (Homo sapiens) follows.
Sequence (P00742 235-488 limits assumed): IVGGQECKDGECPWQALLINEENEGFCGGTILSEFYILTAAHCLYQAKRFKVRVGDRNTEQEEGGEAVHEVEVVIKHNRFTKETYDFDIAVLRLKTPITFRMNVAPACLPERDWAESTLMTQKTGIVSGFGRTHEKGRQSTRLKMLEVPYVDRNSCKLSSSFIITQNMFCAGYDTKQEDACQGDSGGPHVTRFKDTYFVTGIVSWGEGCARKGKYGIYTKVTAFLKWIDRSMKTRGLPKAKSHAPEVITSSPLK
Sequence (P00742 41-179 partner limits assumed): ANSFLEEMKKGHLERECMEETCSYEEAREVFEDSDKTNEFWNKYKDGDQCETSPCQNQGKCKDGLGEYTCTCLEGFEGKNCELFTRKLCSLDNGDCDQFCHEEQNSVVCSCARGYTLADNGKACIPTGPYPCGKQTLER
pKi: −log10 of the molar value.

Some compounds with known pKi results, for comparison:
### Prompt Answer with the recorded pKi of COC(=O)NC(CCS(C)(=O)=O)(Cc1ccnc(N)c1)C(=O)NCC(=O)NCc1ccc(C(=N)N)s1 (stereo not shown) only.
### Response 6.30 to 6.60

### Prompt Answer with the recorded pKi of COC(=O)N[C@](CCC(=O)OC(C)(C)C)(Cc1cccc(C(=N)N)c1)C(=O)NCC(=O)NCc1ccc(C(=N)N)s1 only.
### Response 5.60 to 6.30

### Prompt Answer with the recorded pKi of N=C(N)c1cccc(CC(N)(CCC(=O)O)C(=O)NCC(=O)NCc2ccc(C(=N)N)s2)c1 (stereo not shown) only.
### Response 5.60 to 6.30

Pending compound:
### Prompt Answer with the recorded pKi of COC(=O)CC[C@](Cc1cccc(C(=N)N)c1)(NC(=O)OC)C(=O)NCC(=O)NCc1nc(C(=N)N)cs1 only.
### Response < 5.60

###

Measured Ki on α-thrombin (Homo sapiens) follows.

Some compounds with known Ki results, for comparison:
### Prompt Under α-thrombin (Homo sapiens), report Ki for N=C(N)c1cccc(CC(N)(CCC(=O)O)C(=O)NCC(=O)NCc2ccc(C(=N)N)s2)c1 (centres unmarked)
### Response 0.5 to 2.5 µM

### Prompt Under α-thrombin (Homo sapiens), report Ki for COC(=O)NC(CCC(=O)OC(C)(C)C)(Cc1cccc(C(=N)N)c1)C(=O)NCC(=O)NCc1ccc(C(=N)N)cc1 (centres unmarked)
### Response 0.25 to 0.5 µM

### Prompt Under α-thrombin (Homo sapiens), report Ki for COC(=O)NC(CCS(C)(=O)=O)(Cc1ccnc(N)c1)C(=O)NCC(=O)NCc1ccc(C(=N)N)s1 (centres unmarked)
### Response > 2.5 µM

### Prompt Under α-thrombin (Homo sapiens), report Ki for N=C(N)c1cccc(C[C@@]2(C(=O)NCC(=O)NCc3ccc(C(=N)N)s3)CCC(=O)N2)c1
### Response 0.5 to 2.5 µM

---
### Prompt Under α-thrombin (Homo sapiens), report Ki for COC(=O)N[C@](CCC(=O)OC(C)(C)C)(Cc1cccc(C(=N)N)c1)C(=O)NCC(=O)NCc1ccc(C(=N)N)s1
### Response > 2.5 µM

###

# test-system: Matriptase (Homo sapiens, UniProt Q9Y5Y6)
# Sequence (Q9Y5Y6 1-855 C731S): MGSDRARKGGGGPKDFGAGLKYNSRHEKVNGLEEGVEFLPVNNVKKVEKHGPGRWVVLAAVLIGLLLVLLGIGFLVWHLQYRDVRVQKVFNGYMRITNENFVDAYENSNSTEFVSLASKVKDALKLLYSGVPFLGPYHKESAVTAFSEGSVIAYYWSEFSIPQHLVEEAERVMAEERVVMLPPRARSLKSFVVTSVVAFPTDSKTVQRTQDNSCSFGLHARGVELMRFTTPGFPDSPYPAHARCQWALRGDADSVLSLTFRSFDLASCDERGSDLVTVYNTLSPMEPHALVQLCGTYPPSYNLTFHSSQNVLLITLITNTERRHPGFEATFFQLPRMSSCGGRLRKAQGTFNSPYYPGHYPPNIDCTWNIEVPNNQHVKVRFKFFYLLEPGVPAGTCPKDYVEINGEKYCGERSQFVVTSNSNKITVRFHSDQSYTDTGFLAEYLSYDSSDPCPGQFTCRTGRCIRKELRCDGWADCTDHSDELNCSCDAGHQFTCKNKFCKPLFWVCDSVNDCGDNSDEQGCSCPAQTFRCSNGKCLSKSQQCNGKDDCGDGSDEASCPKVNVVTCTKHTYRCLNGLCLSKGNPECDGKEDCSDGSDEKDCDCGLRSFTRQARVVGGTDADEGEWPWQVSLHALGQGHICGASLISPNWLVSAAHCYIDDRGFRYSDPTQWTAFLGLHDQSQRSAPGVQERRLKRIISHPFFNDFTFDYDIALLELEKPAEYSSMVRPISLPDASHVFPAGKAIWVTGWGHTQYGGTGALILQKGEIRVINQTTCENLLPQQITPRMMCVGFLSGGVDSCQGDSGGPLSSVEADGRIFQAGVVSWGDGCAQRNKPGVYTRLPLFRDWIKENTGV
pKi: −log10 of the molar value.
metric: pKi

### Prompt Answer with the recorded pKi of COC(=O)CC[C@](Cc1cccc(C(=N)N)c1)(NC(=O)OC)C(=O)NCC(=O)NCc1nc(C(=N)N)cs1 only.
### Response 6.30 to 6.60

---
### Prompt Answer with the recorded pKi of N=C(N)c1cccc(CC(N)(CCC(=O)O)C(=O)NCC(=O)NCc2ccc(C(=N)N)s2)c1 (centres unmarked) only.
### Response 6.60 to 7.00
